Recorded values, source the PETadex activity labels (doi:10.1093/ismejo/wraf068).

substrate: BHET; assay: Proxy for plastic degradation [HPLC-UV] (mmol); details: pH 8
MEASURED_QUANTITY: Proxy for plastic degradation
Give the value as a plain number.

Dear colleague, I am looking for the recorded Proxy for plastic degradation of the following protein: unnamed (protein) CGSDDDSAPGSPAGNEPFYAPDELGPFAVGRSTFTIVDADRGDRELPVDVWYPVDPEEATGAPSLYQVSILVWIFPLVFTTPSEVALDSPPVSEARRFPLIVFSHGSGGLRYQSFFLTEILASHGFVVVAPSHVGNTLLDEINGTFAPLTDMMVARPLDVSYLITRMLEKNEDAADPLYGTIDADRIGVCGHSFGGFTSLAMAAGFGADPPPDLDPEIPEDLEPVPPDPRVDAIVPIAPASSWFGDSELAGIDVPTLIIGGTLDTTTPIATENVRPYEMIPAPVFRADLDGAVHFSFSNSCDLIQGMREKGIPQALIDALLGAEFTAPCNPPSLDVEEAHRITNLYTVSLFETFLEDDSRYEKYLTEAYAEASEPNVTFYANPD
0
